# system: CK1δ (Homo sapiens)
# assay info: CK1δ kinase assay (Kinase-Glo)
# Type: biochemical
# test conditions: 10 μM ATP, 2 nM wild type kinase, 85 min at 25° C.
assay readout: EC50 (nM)

Examples with their reported EC50 follow.
{"compound": "CC(=O)Nc1cn2nccc(-c3cn(C)nc3-c3ccc(F)cc3)c2n1 [Compound I-20]", "value unit": "nM", "observed measurement": 2500}
{"compound": "Cn1cc(-c2ccnc3ccnn23)c(-c2ccc(F)cc2)n1 [Compound I-1]", "value unit": "nM", "observed measurement": 15000}

(1) CNC(=O)c1cn2nccc(-c3cn(C)nc3-c3ccc(F)cc3)c2n1 [Compound I-16]
(2) COC(=O)c1cn2nccc(-c3cn(C)nc3-c3ccc(F)cc3)c2n1 [Compound I-12]
**Query** Select one: 1 or 2 . Criterion: greater recorded EC50. Pick one; state its label.
**Result** 2
(2: 8600 nM, 1: 700 nM)

* * *

# assay info: Caco-2 drug transport assay
# test conditions: human, Caco-2, pH 7.4
assay readout: efflux ratio at 2 h, 5 μM

Examples with their reported efflux ratio at 2 h, 5 μM follow.
{"compound": "Cn1cc(-c2ccnn3cc(C(C)(C)O)nc23)c(-c2ccc(F)cc2)n1 [Compound I-17]", "assay readout": "efflux ratio at 2 h, 5 μM", "observed measurement": 0.77}
{"compound": "Cn1cc(-c2ccnn3cc(C(N)=O)nc23)c(-c2ccc(F)cc2)n1 [Compound I-15]", "assay readout": "efflux ratio at 2 h, 5 μM", "observed measurement": 1.02}
{"compound": "CNCc1cn2nccc(-c3cn(C)nc3-c3ccc(F)cc3)c2n1 [Compound I-22]", "assay readout": "efflux ratio at 2 h, 5 μM", "observed measurement": 2.52}

(A) CNC(=O)c1cn2nccc(-c3cn(C)nc3-c3ccc(F)cc3)c2n1 [Compound I-16]
(B) CC(=O)N1CCn2nc(-c3ccc(F)cc3)c(-c3ccnc4[nH]ccc34)c2C1 [Compound I-24]
(C) Cn1cc(-c2ccnn3cc(CN)nc23)c(-c2ccc(F)cc2)n1 [Compound I-14]
**Query** Put these in order: smallest efflux ratio at 2 h, 5 μM first, largest last. List the labels, following the order given in the request.
**Result** A, C, B
(A: 0.93, C: 2.43, B: 3.49)

* * *

# system: CK1δ (Homo sapiens, UniProt P48730)
# Sequence (P48730 whole entry): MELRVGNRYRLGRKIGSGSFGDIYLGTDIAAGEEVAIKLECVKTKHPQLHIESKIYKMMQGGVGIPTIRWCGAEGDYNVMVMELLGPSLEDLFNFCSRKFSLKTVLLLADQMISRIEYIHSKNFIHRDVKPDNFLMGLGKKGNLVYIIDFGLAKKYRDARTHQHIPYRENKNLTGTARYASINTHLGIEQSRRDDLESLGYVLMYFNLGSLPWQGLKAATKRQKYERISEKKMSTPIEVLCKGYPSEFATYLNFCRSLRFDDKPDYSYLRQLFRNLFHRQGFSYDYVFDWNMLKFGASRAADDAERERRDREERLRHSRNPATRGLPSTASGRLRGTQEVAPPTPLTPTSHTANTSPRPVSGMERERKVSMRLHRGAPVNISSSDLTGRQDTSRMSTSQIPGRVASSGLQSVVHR
# assay info: CK1δ kinase assay (Kinase-Glo)
# test conditions: 10 μM ATP, 2 nM wild type kinase, 85 min at 25° C.
pEC50: −log10 of the molar value.
assay readout: pEC50

Examples with their reported pEC50 follow.
{"mol smiles": "Cn1cc(-c2ccnn3cnnc23)c(-c2ccc(F)cc2)n1", "pEC50": 5.10}
{"mol smiles": "CNCc1cn2nccc(-c3cn(C)nc3-c3ccc(F)cc3)c2n1", "pEC50": 6.52}

(a) CC(=O)NCc1cn2nccc(-c3cn(C)nc3-c3ccc(F)cc3)c2n1
(b) Cn1cc(-c2ccnn3cc(CN)nc23)c(-c2ccc(F)cc2)n1
(c) Cn1cc(-c2ccnn3c(N)cnc23)c(-c2ccc(F)cc2)n1
**Query** Rank entries according to their pEC50, from the largest number down. List the labels, following the order given in the request.
**Result** b, c, a
(b: 6.70, c: 5.48, a: 5.28)

* * *

# assay info: Intrinsic clearance in liver microsomes (mouse)
# Type: in vitro ADME
# test conditions: Mouse liver microsomes 0.5 mg/mL, 2 μM compound, 37° C.; read-out: in vitro t1/2
assay readout: half-life at 2 μM (min)

Examples with their reported half-life at 2 μM follow.
{"mol smiles": "Cn1cc(-c2ccnn3cc(C(N)=O)nc23)c(-c2ccc(F)cc2)n1", "value unit": "min", "half-life at 2 μM": 35.7}
{"mol smiles": "CC(=O)N1CCn2nc(-c3ccc(F)cc3)c(-c3ccnc4[nH]ccc34)c2C1", "value unit": "min", "half-life at 2 μM": 56.1}
{"mol smiles": "Cn1cc(-c2ccnn3cc(C(C)(C)O)nc23)c(-c2ccc(F)cc2)n1", "value unit": "min", "half-life at 2 μM": 72.6}
{"mol smiles": "CNCc1cn2nccc(-c3cn(C)nc3-c3ccc(F)cc3)c2n1", "value unit": "min", "half-life at 2 μM": 73.2}

(I) Cn1cc(-c2ccnn3cc(CN)nc23)c(-c2ccc(F)cc2)n1
(II) CNC(=O)c1cn2nccc(-c3cn(C)nc3-c3ccc(F)cc3)c2n1
**Query** Select one: I or II . Criterion: greater recorded half-life at 2 μM. Pick one; state its label.
**Result** I
(I: 235 min, II: 20.7 min)

* * *

# assay info: Intrinsic clearance in liver microsomes (human)
# Assay type: in vitro ADME
# test conditions: Human liver microsomes 0.5 mg/mL, 2 μM compound, 37° C.; read-out: in vitro t1/2
assay readout: half-life at 2 μM (h)

Examples with their reported half-life at 2 μM follow.
{"molecule": "CNCc1cn2nccc(-c3cn(C)nc3-c3ccc(F)cc3)c2n1 [Compound I-22]", "value unit": "h", "observed measurement": 8.76}
{"molecule": "Cn1cc(-c2ccnn3cc(C(C)(C)O)nc23)c(-c2ccc(F)cc2)n1 [Compound I-17]", "value unit": "h", "observed measurement": 7.11}

(I) CC(=O)N1CCn2nc(-c3ccc(F)cc3)c(-c3ccnc4[nH]ccc34)c2C1 [Compound I-24]
(II) CNC(=O)c1cn2nccc(-c3cn(C)nc3-c3ccc(F)cc3)c2n1 [Compound I-16]
(III) Cn1cc(-c2ccnn3cc(CN)nc23)c(-c2ccc(F)cc2)n1 [Compound I-14]
**Query** Put these in order: smallest half-life at 2 μM first, largest last. List the labels, following the order given in the request.
**Result** II, I, III

* * *

# system: CK1δ (Homo sapiens, UniProt P48730)
# assay info: CK1δ kinase assay (Kinase-Glo)
# test conditions: 10 μM ATP, 2 nM wild type kinase, 85 min at 25° C.
assay readout: EC50 (µM)

Examples with their reported EC50 follow.
{"mol smiles": "Cn1cc(-c2ccnn3cc(N)nc23)c(-c2ccc(F)cc2)n1", "system": "CK1δ (Homo sapiens, UniProt P48730)", "value unit": "µM", "EC50": 2.8}
{"mol smiles": "Cc1cn2nccc(-c3cn(C)nc3-c3ccc(F)cc3)c2n1", "system": "CK1δ (Homo sapiens, UniProt P48730)", "value unit": "µM", "EC50": 2.7}
{"mol smiles": "Cn1cc(-c2ccnn3cc(C(C)(C)O)nc23)c(-c2ccc(F)cc2)n1", "system": "CK1δ (Homo sapiens, UniProt P48730)", "value unit": "µM", "EC50": 0.4}

(I) Cn1cc(-c2ccnn3cccc23)c(-c2ccc(F)cc2)n1
(II) CNc1cn2nccc(-c3cn(C)nc3-c3ccc(F)cc3)c2n1
(III) Cn1cc(-c2ccnn3cc(C(N)=O)nc23)c(-c2ccc(F)cc2)n1
(IV) CC(=O)N1CCn2nc(-c3ccc(F)cc3)c(-c3ccnc4[nH]ccc34)c2C1
**Query** Rank entries according to their EC50, from the largest number down. List the labels, following the order given in the request.
**Result** II, I, IV, III
(II: 25 µM, I: 2.5 µM, IV: 0.8 µM, III: 0.5 µM)
